Reported Dissociation amount (RU) is given for each of the following binders.
EXPERIMENTAL SYSTEM: T1, human FSTL1 (construct not stated) (human, UniProt Q12841 21-308)
T1 construct: also called human FSTL1 antigen; FSTL1 (R&D Systems, Inc. Cat#1694-FN-050)
T1 sequence: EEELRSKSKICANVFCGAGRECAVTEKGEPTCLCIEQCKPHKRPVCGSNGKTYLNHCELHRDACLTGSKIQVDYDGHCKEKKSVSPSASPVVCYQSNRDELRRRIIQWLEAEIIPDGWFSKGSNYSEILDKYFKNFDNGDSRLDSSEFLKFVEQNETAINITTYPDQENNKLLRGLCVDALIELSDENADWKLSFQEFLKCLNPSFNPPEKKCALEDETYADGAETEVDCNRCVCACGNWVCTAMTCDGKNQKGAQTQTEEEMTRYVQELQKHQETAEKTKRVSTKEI
ASSAY PROCEDURE: SPR (Biacore T-200), captured antibody, human FSTL1 10 µg/ml; note: time not given here
Protocol: The mouse chimeric antibodies were immobilized onto Sensor Chip CM5 (GE Healthcare Japan Corp., BR-1005-30) using Mouse Antibody Capture Kit (GE Healthcare Japan Corp., BR-1008-38), and their affinity for human FSTL1 was calculated using Biacore T-200 (GE Healthcare Japan Corp.). First, the exhaustive activity comparison of the obtained antibodies was conducted with the human FSTL1 concentration fixed to 10 μg/ml (Table 33-1, FIG. 28).
// return numeric value only (unit: RU, not printed)

anti-FSTL1 antibody clone #8-1 (chicken-mouse chimeric antibody) (antibody, mouse IgG1, kappa, V domains shown) VH: AVTLDESGGGLQTPGGALSLVCKGSGFTFSSFNMFWVRQAPGKGLEWVAGIGKDGVPKYGAAVDGRATISKDNGQSTMRLQLNNLRAEDTGTYFCAKAAGGCSYDWCGIYAGDIDTWGHGTEVIVSS VL: ASTQPSSVSANPGEAVKITCSGGSGSYYGWYQQKSPGSAPVTVIYNNNQRPSDIPSRFSGSKSGSTATLTITGVQAEDEAVYFCGGYDSSSGHGGIFGAGTTLTVLG : 12.3
anti-FSTL1 antibody clone #5-10 (chicken-mouse chimeric antibody) (antibody, mouse IgG1, V domains shown) VH: AVTLDESGGGLQTPGGGLSLVCKGSGFTLSSFNMFWVRQAPGKGLEWVAGVGKDGGTTYGAAVDGRATISRDSGQSTVRLQLNDLRAEDTGTYFCAKAAGGCSYSWCGAYVGDLDAWGHGTEVIVSS VL: ASTQPSSVSANPGETVKITCSGGGSYVGSYYYGWYQQKSPGSAPVTVIYNNNQRPSDIPSRFSGSKSGSTATLTITGVQAEDEAVYFCGGYDSSAGGIFGAGTTLTVLG : 12.1

Now for the binder whose Dissociation amount (RU) we want.
Query :: Provide measured Dissociation amount (RU) value, entry: anti-FSTL1 antibody clone #33 (chicken-mouse chimeric antibody) (antibody, mouse IgG1, kappa, V domains shown) VH: AVTLDESGGGLQTPGGGLSLVCKASGFTFSSFNMNWVRQAPGKGLEYVAEISGTGSSTYYGSAVKGRATISRDNGQSTVRLQLNNLRAEDTATYFCARGDGAYSIDAWGHGTEVIVSS VL: ASTQPSSVSANPGETVEITCSGDSSYYGWFQQKSPGSAPVTVIYDNTNRPSDIPSRFSGSKSGSTATLTITGVRAEDEAVYYCGGYDSSTYDGIFGAGTTLTVLG
Result :: 4.1
